Test system: OVCAR-4 ovarian
Assay: NCI tumour cell line growth inhibition, 48 h
Provide the reported TGI of each item.

stdin: Given `CN1CCN(CCn2c3c4ccccc4ccc3c3oc(=O)c4ccccc4c32)CC1` , respond with its TGI.
stdout: 6.85 µM

stdin: Given `O=C(O)CCCn1c(SCc2c(Cl)cccc2Cl)nc2ccsc2c1=O` , respond with its TGI.
stdout: > 100 µM

stdin: Given `CCOc1cc2c[n+](C)c3c4cc(OC)c(OC)cc4ccc3c2cc1OC` , respond with its TGI.
stdout: > 100 µM

stdin: Given `O=c1[nH]nc(Cc2ccccc2)n1/N=C\CC/C=N\n1c(Cc2ccccc2)n[nH]c1=O` , respond with its TGI.
stdout: > 100 µM

stdin: Given `CN1CCN(c2ccc3nc(-c4c5cccccc-5[nH]c4=O)[nH]c3c2)CC1` , respond with its TGI.
stdout: 55.2 µM

###

Test system: OVCAR-4 ovarian
Experiment: NCI tumour cell line growth inhibition, 48 h; in the data active means GI50 below about 0.43 µM; inactive means the rest
Assign a class; possible classes are active, inactive

stdin: Just curious, what result did Cc1ccc(C2=C(c3ccc(C)cc3)C3(c4ccc(C)cc4)[C@@H](C#N)[C@H](C#N)C2(c2ccc(C)cc2)S3=O)cc1 (stereo partly drawn) get here?
stdout: inactive

stdin: Just curious, what result did O=C1OCC2=C1C(c1cccc(Cl)c1)c1cc3c(cc1N2CCO)OCO3 (stereo not drawn) get here?
stdout: inactive

stdin: Just curious, what result did `CC(=O)[CH-]C(C)=O.CC(=O)[CH-]C(C)=O.[CH2-]CCCCCCC.[CH2-]CCCCCCC.[Sn+4]` get here?
stdout: inactive

stdin: Just curious, what result did `Cc1c2cnccc2c(C)c2c1c1cc(CO)ccc1n2C` get here?
stdout: active

stdin: Just curious, what result did CCOC(=O)C1=C(C)N(c2ccc(OC)cc2)C2(O)C=CC(=O)C3C(=O)N(c4ccccc4)C(=O)C132 (stereo not drawn) get here?
stdout: inactive

stdin: Just curious, what result did `Cn1cc(C2=C(c3cn(CCSC(=N)N)c4ccccc34)C(=O)NC2=O)c2ccccc21` get here?
stdout: inactive

stdin: Just curious, what result did `COc1ccc(S(=O)(=O)Nc2cc(/C=C\c3cc(OC)c(OC)c(OC)c3)cc(OC)c2OC)cc1` get here?
stdout: active

stdin: Just curious, what result did `CN([O-])c1nc(N(C)[O-])nc(N2CCOCC2)n1.CN([O-])c1nc(N(C)[OH2+])nc(N2CCOCC2)n1.[Fe+3]` get here?
stdout: inactive

###

Tested on: U251 CNS
Assay: NCI tumour cell line growth inhibition, 48 h
Provide the reported TGI of each item.

stdin: Given CCCCCCC[C@@H](O)CC(=O)NC(CC(C)C)C(=O)NC(CCC(=O)O)C(=O)NC1C(=O)NC(C(C)C)C(=O)NC(CC(C)C)C(=O)NC(CO)C(=O)NC(CC(C)C)C(=O)NC(CO)C(=O)NC(C(C)CC)C(=O)OC1C (stereo partly drawn) , respond with its TGI.
stdout: 20.9 µM

stdin: Given `C[C@@H](O)[C@H]1C(=O)N2C(C(=O)O)=C(SCCN=CN)C[C@H]12` , respond with its TGI.
stdout: 10.9 µM

stdin: Given CCCCCCCCC1=CCC(CN(C)C)C1=O (stereo not drawn) , respond with its TGI.
stdout: 32.8 µM

stdin: Given CO[C@H](C(=O)[C@@H](O)[C@@H](C)O)[C@@H]1Cc2cc3cc(O[C@H]4C[C@@H](O[C@H]5C[C@@H](O)[C@H](O)C(C)O5)[C@H](O)C(C)(O)O4)cc(O)c3c(O)c2C(=O)[C@H]1O[C@H]1C[C@@H](O[C@H]2C[C@@H](O[C@H]3C[C@@H](OC)[C@H](O)C(C)O3)[C@@H](O)C(C)O2)[C@H](O)C(C)O1 (stereo partly drawn) , respond with its TGI.
stdout: > 16.8 µM

stdin: Given `O=C(N/N=C\c1c(O)ccc2ccccc12)C1CC1` , respond with its TGI.
stdout: > 100 µM

stdin: Given O=C(O)C(Cc1c[nH]c2ccccc12)C(=O)NO (stereo not drawn) , respond with its TGI.
stdout: > 100 µM

stdin: Given `Cn1cnc([N+](=O)[O-])c1[Se]c1ncnc2nc[nH]c12` , respond with its TGI.
stdout: 44 µM

stdin: Given `COC(=O)c1cc2c3c(c1)Oc1cc(C(=O)OC)cc4c1C3c1c(cc(C(=O)OC)cc1O4)O2` , respond with its TGI.
stdout: 41.8 µM

stdin: Given `S=C1NCN2CCN(CC2)CNC(=S)C(=S)NCN2CCN(CC2)CNC1=S` , respond with its TGI.
stdout: > 100 µM

stdin: Given Nc1nc(N)c2cc(CNc3ccc(C(=O)NC(CC(=O)O)C(=O)O)cc3)ccc2n1 (stereo not drawn) , respond with its TGI.
stdout: > 100 µM

stdin: Given CC1=CC2CCC1(C)C/C2=C(/C)OC=O (stereo not drawn) , respond with its TGI.
stdout: > 100 µM

stdin: Given `Cc1cc(C)c2cc(N)c(Cl)nc2n1` , respond with its TGI.
stdout: > 100 µM

stdin: Given `CCOc1cc2c[n+](C)c3c4cc(OC)c(OC)cc4ccc3c2cc1OC` , respond with its TGI.
stdout: > 100 µM

stdin: Given CC(=O)OCC1OC(n2c(-c3cccs3)c3c(c(C#N)c2=S)-c2ccccc2CC3)C(OC(C)=O)C(OC(C)=O)C1OC(C)=O (stereo not drawn) , respond with its TGI.
stdout: > 53.8 µM

stdin: Given `COc1cccc(/C=N/Nc2ncnc3c2cnn3-c2cccc(OC)c2)c1` , respond with its TGI.
stdout: > 25 µM

stdin: Given `COc1ccc2c(c1)C(=O)c1c-2n(CCCNCCO)c(=O)c2ccccc12` , respond with its TGI.
stdout: 1.17 µM

stdin: Given `COC(=O)[C@@H](Cc1ccccc1)NNC(=O)OC(C)(C)C` , respond with its TGI.
stdout: > 100 µM

stdin: Given CCCNC(=O)C(C)(Cl)C(=O)c1ccccc1O (stereo not drawn) , respond with its TGI.
stdout: > 100 µM
